# Assay Info: calcium signal blockers in parental CHO-K1 cells – cell-based, Fluo-8 calcium fluorescence, full deck, 1536-well, counter-screen for M1 antagonist project, primary screen (AID 602250);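 also: 0% = DMSO plus EC80 ATP and 100% = DMSO alone without ATP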
# Measurement Conditions: ATP-induced calcium, Fluo-8 fluorescence, at 3 µM
The whole screen tested about 360,000 compounds, of which about 2,200 (0.61%) were called active.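 The calls were made as follows: active = inhibition above a per-plate cutoff, the plate's mean sample inhibition plus 3 SD (cut at about 24% in these data); inactive = the rest.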 The full list was thinned out, with actives kept by preference.
Possible outcomes: 1 (active), -1 (inactive)

1) Cc1nn(Cc2ccc(Cl)c(Cl)c2)c(C)c1NC(=O)c1cc(C2CC2)on1 :: -1
2) O=C1C=CN2CCCC2CC1 (stereo not drawn) :: -1
3) CCCCNC(=O)CSc1nc2ccc(NC(=O)CSc3nnc(N)s3)cc2s1 :: -1
4) O=C(O)CCCCc1nc2ccccc2s1 :: 1
5) CC(C)n1c(=O)[nH]c2cc(C(=O)Nc3ccccc3)ccc21 :: -1
6) COc1cc(C(=O)NCCOC(=O)c2cccc(N(C)C)c2)cc(OC)c1OC :: -1
7) O=C1CN(C(=O)COC(=O)c2cnc(Cl)c(Cl)c2)c2ccccc2N1 :: -1
8) CCN1C(=O)C(C(=O)NC(C)c2ccccc2)C2CC1(C)Oc1ccccc12 (stereo not drawn) :: -1
9) O=C1C(C=NCC2CCCO2)=C(O)c2ccccc21 (stereo not drawn) :: -1
10) COc1ccc(CCNc2ncnc3nc[nH]c23)cc1OC :: -1
11) Cc1nn(-c2ccc(F)cc2)c(Cl)c1/C=C(/CCC(=O)O)c1nc2ccccc2s1 :: -1
12) Nc1cccc(S(=O)(=O)Nc2ccc(SC(F)F)cc2)c1 :: -1
13) O=C(O)CCCCCCCCc1cn(CN2C(=O)c3ccccc3C2=O)nn1 :: -1
14) Cc1cccc2cc3c(N)c(C(=O)N4CCCc5ccccc54)sc3nc12 :: -1
15) O=S(=O)(Nc1ccccc1Br)c1cccs1 :: -1
16) CC1(C(=O)NCc2ccc3c(c2)OCO3)CCN1CCc1ccccc1 (stereo not drawn) :: -1
17) N#Cc1cc([N+](=O)[O-])ccc1NCC1CCCO1 (stereo not drawn) :: -1
18) CC(C)CN(CC(C)C)CC(O)CN(c1ccccc1)S(=O)(=O)c1ccccc1[N+](=O)[O-] (stereo not drawn) :: -1
19) CCS(=O)(=O)c1ccc(C(=O)NC)c(Cl)c1Cl :: -1
20) CCOC(=O)c1cc2occc2n1CC(=O)NC1CCC(C)CC1 (stereo not drawn) :: -1
21) Nc1nnc(SCC(=O)Nc2ccc3nc(SCC(=O)Nc4ccccc4)sc3c2)s1 :: 1
22) COc1cc(OC)cc(-c2nnc(SCC(=O)Nc3ccc(C(=O)O)cc3)s2)c1 :: -1
23) O=C(Nc1cccc(Cl)c1)Nc1ccccc1NS(=O)(=O)c1cccs1 :: 1

====

# Assay Info: calcium signal blockers in parental CHO-K1 cells – cell-based, Fluo-8 calcium fluorescence, full deck, 1536-well, counter-screen for M1 antagonist project, primary screen (AID 602250);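 also: 0% = DMSO plus EC80 ATP and 100% = DMSO alone without ATP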
# Measurement Conditions: ATP-induced calcium, Fluo-8 fluorescence, at 3 µM, stronger effect = higher value
Out of some 360,000 compounds screened, about 2,200 (0.61%) were called active. This excerpt belongs to a sample that is enriched for actives.
Quantity Kind: inhibition (%)

1. O=C(NCCCN1CCOCC1)c1cc(-c2ccc(Cl)cc2)on1 :: -8.77
2. Cc1ccc(OCc2cc(C(=O)N(C)CCn3ccnc3C)no2)cc1C :: -1.34
3. CCC(Cc1ccccc1)NC(=O)C1CCCCC1 (stereo not given) :: 27.9
4. CCOC(=O)C1CCN(C(=O)c2ccc3c(=O)n4nc(Nc5ccccc5CC)sc4nc3c2)CC1 :: -9.89
5. CC(=O)c1cccc(OCc2cc(C(=O)NC(C)Cc3cccnc3)no2)c1 (stereo not given) :: -0.09
6. Cc1cc(NC(=O)CCS(=O)(=O)c2ccc(F)cc2)no1 :: -0.17
7. CCN(C(=O)COC(=O)c1c(NC(C)=O)sc(C)c1C)C1CCS(=O)(=O)C1 (stereo not given) :: -7.84
8. Cn1c(=O)[nH]c(=O)c2c1nc(N(CCO)Cc1ccccc1)n2Cc1ccccc1Cl :: -11.1
9. CCOC(=O)N/N=C1\CC(C)S(=O)(=O)c2ccc(Cl)cc21 (stereo not given) :: -8.64
10. O=C(/C=C(O)/C=C/c1ccc(O)cc1)/C=C/c1ccc(O)cc1 :: 31.8
11. O=C(c1ccc(C(F)(F)F)cc1)C1CCCN(C(=O)c2csnn2)C1 (stereo not given) :: -23.1
12. Cc1c(C)n(Cc2ccc(Cl)cc2)c2ccc(C(=O)NCCCN3CCOCC3)cc12 :: 31.3
13. C=CCC1(CC=C)CCCN1C(=O)c1cc(COc2ccc(-n3cncn3)cc2)on1 :: 31.3
14. CCC1Oc2ccc(Cl)cc2N(CC(=O)O)C1=O (stereo not given) :: -18.5
15. Cc1cc(NCc2ccco2)n2c(nc3ccccc32)c1C#N :: -0.52
16. O=C(Cc1ccc(Cl)cc1)NC(=S)Nc1ccccc1O :: 31.4
17. NS(=O)(=O)c1ccc(NC(=O)COC(=O)C2(c3ccc(F)cc3)CCCC2)cc1 :: 31.1
18. CC1=C2C(=O)OC(c3ccoc3)C2(C)CCC1 (stereo not given) :: -12.4
19. Cc1ccc(NC(=O)[C@H](Cc2ccccc2)NC(=O)C2CCNCC2)cc1 :: -21.4
20. Cc1cc(S(=O)(=O)NCC(C)C)ccc1OCC(=O)NC1CC1 :: 7.62
21. CC(C)OCCCNc1ncnc2c1[nH]c1ccc(F)cc12 :: 26.5
22. Cn1c(SCC(=O)NC2CCCCC2)nnc1-c1ccc(N)cc1 :: 3.52
23. COC(=O)c1ccccc1NC(=O)CN(Cc1ccc(Cl)cc1)S(C)(=O)=O :: -17.4
24. CN(C)S(=O)(=O)c1cccc(NC(=O)COC(=O)C2(c3ccccc3F)CCCC2)c1 :: 0.69
25. CCN(CC(=O)Nc1cc(Cl)ccc1C)C(=O)CN1C(=O)NC2(CCCC2)C1=O :: -4.87
26. O=C(N/N=C/c1ccc(OCC2COCCO2)cc1)c1ccc(Br)cc1 (stereo not given) :: -8.18
27. Cc1ccc(CNC(=O)CCNS(=O)(=O)c2cccc3nonc23)cc1 :: -10.2
28. Cc1ccc(SCCN2C(=O)NC(C)(C)C2=O)cc1 :: -11.7
29. O=C(CCn1nnnc1CN1CCOCC1)N1CCC(c2ccccc2Cl)C1 (stereo not given) :: -9.8
30. COc1ccc(C(=O)NCCCN2CCOCC2)cc1Br :: 8.25
31. Cc1scc(C(=O)NNC(=S)NCc2ccccc2)c1C :: -15.3
32. CCCCN(C)C(=O)c1ccc2c(c1)N(CC)C(=O)c1ccccc1S2(=O)=O :: 18
33. CN(Cc1cnccn1)C(=O)c1cc(COc2cccc(C(F)(F)F)c2)on1 :: -4.38
34. CCNC(=S)NNC(=O)Cc1ccccc1 :: 32.5
35. COc1ccccc1OCC(=O)OCc1cc(-c2ccco2)on1 :: -11.2
36. Cc1cc(=O)n2nc(N3CCCC(C(=O)N4CCN(C)CC4)C3)sc2n1 (stereo not given) :: 26.5
37. O=C(Nc1ccc(-c2ccc3nncn3n2)cc1)C1CCCCC1 :: -5.78
38. O[C@H]1C[C@H](c2ccc(Cl)cc2)N(Cc2cccs2)C[C@@H]1n1cc(C2CC2)nn1 :: -27.1
39. COC(=O)Cc1c(O)ccn(Cc2cccc(C(F)(F)F)c2)c1=O :: -6.45
40. Cc1cc(-c2nnc(SCC(=O)Nc3ccc(S(N)(=O)=O)cc3)n2N)n[nH]1 :: -13.8
41. CCOc1ccccc1NC(=S)NC(=O)CCc1ccccc1 :: -6.79
42. COCc1[nH][nH]c(=O)c1C=Nc1ccc(F)cc1F :: 3.8
43. Cc1ccc(Nc2nc(CSc3nnnn3-c3ccccc3)cc(=O)[nH]2)cc1 :: 2
44. O=C(CN1CCN(S(=O)(=O)c2ccc3ccccc3c2)CC1)NC(=O)NC1CCCCC1 :: -2.87
45. O=C(O)/C=C/c1ccc(S(=O)(=O)N2CCCCCC2)cc1 :: -2.18

====

# Assay Info: calcium signal blockers in parental CHO-K1 cells – cell-based, Fluo-8 calcium fluorescence, full deck, 1536-well, counter-screen for M1 antagonist project, primary screen (AID 602250);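 also: 0% = DMSO plus EC80 ATP and 100% = DMSO alone without ATP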
# Measurement Conditions: ATP-induced calcium, Fluo-8 fluorescence, at 3 µM, stronger effect = higher value
In all, about 360,000 compounds went through this assay and about 2,200 (0.61%) were called active. Shown is part of a subset that was picked to be rich in actives.
Please enter met where inhibition is greater than or equal to 10%, and not met where it is lower.

1) CSc1nsc(NC(=O)Nc2ccccc2)n1 :: met
2) CC(=O)c1cccc(NC(=S)N2CCN(S(C)(=O)=O)CC2)c1 :: not met
3) Cc1cccn2c(=O)c3cc(C(=O)NCCN4CCOCC4)c(=N)n(Cc4cccnc4)c3nc12 :: not met
4) C=CCSc1nsc(NC(=O)Nc2cccc(C(C)=O)c2)n1 :: met
5) CC1(C)CC(=O)C2=C(C1)N=C1SCCC(=O)N1C2c1ccc(C(F)(F)F)cc1 (stereo unspecified) :: not met
6) Cc1cccn2c(=O)c3cc(C#N)c(=NC(=O)c4cccnc4)n(CC4CCCO4)c3nc12 (stereo unspecified) :: met
7) CCCCN1C(=O)C(=O)N(CC(=O)Nc2cccc(C(C)=O)c2)C1=O :: met
8) CSc1nsc(SCC(=O)Nc2cc(C(=O)O)ccc2C)n1 :: not met
9) CCCc1ccc(-c2c(C)sc(NC(=O)c3ccnn3C)c2C#N)cc1 :: met
10) O=C(Nc1ccccc1)Nc1nnc(COc2ccccc2F)s1 :: not met
11) CCSc1nsc(NC(=O)Nc2cccc(C(C)=O)c2)n1 :: met
